Value source: ChEMBL document CHEMBL1141755

test system: Cladosporium cucumerinum; assay: Antifungal activity against Cladosporium cucumerinum at 1 ug after 3 days by MTT assay; assay type: functional, organism-based
Calls of active or inactive are those of the source. The calls are words filed in the database; no cut-off is given here.
A correct response names exactly one class from active, inactive

COc1cc(O)c2c(=O)c(-c3ccc(O)c(C)c3O)coc2c1 :: inactive
COc1cc(-c2cc(=O)c3c(O)cc(O)cc3o2)cc(OC)c1O :: inactive

Dear all, I need the recorded test outcome for COc1cc(O)c2c(=O)c(-c3ccc(O)cc3OC)coc2c1 , thank you.
inactive

Cool, now C=C(C)C(O)Cc1c(O)cc(O)c2c1OC(c1ccc(O)cc1)CC2=O (stereo not drawn)
inactive

Input COc1cc(O)c2c(=O)c(-c3ccc(O)cc3O)coc2c1
active

Record: CC1(C)C=Cc2c(cc3occ(-c4ccc(O)cc4O)c(=O)c3c2O)O1
active

Lookup COc1cc(O)c2c(=O)c(-c3ccc(O)c(C)c3OC)coc2c1
active

Param item: CC1(C)C=Cc2c(cc(O)c3c(=O)c(-c4ccc(O)cc4O)coc23)O1
active

* * *

test system: Candida albicans; assay: Antifungal activity against Candida albicans at 10 ug after 3 days by MTT assay; type: functional, organism-based
Calls of active or inactive are those of the source. No cut-off for these calls is given here.
assay.metric: Activity

Guide cases for Activity, answers given:
COc1cc(-c2cc(=O)c3c(O)cc(O)cc3o2)cc(OC)c1O :: inactive
COc1cc(O)c2c(=O)c(-c3ccc(O)cc3O)coc2c1 :: inactive
COc1cc(O)c2c(=O)c(-c3ccc(O)c(C)c3O)coc2c1 :: Active
CC1(C)C=Cc2c(cc(O)c3c(=O)c(-c4ccc(O)cc4O)coc23)O1 :: Active
C=C(C)C(O)Cc1c(O)cc(O)c2c1OC(c1ccc(O)cc1)CC2=O (stereo not drawn) :: Active

Name the recorded Activity for COc1cc(O)c2c(=O)c(-c3ccc(O)cc3OC)coc2c1 .
inactive

Further, for CC1(C)C=Cc2c(cc3occ(-c4ccc(O)cc4O)c(=O)c3c2O)O1 ?
Active

Now try COc1cc(O)c2c(=O)c(-c3ccc(O)c(C)c3OC)coc2c1 .
inactive
